# test: Lipophilicity, log K of the compound by HPLC analysis
# Format: physicochemical
Category | rule: reported log K within range, see lower (below -0.2), middle (-0.2 to below 0.2), upper (0.2 or more)

Here's what some known entries look like.
[
  {
    "compound": "CCCCNc1cnc(C(N)=O)cn1",
    "assigned_class": "middle"
  },
  {
    "compound": "NC(=O)c1cncc(NCCc2ccccc2)n1",
    "assigned_class": "middle"
  },
  {
    "compound": "CCCCCCCNc1cnc(C(N)=O)cn1",
    "assigned_class": "upper"
  },
  {
    "compound": "NC(=O)c1cnccn1 [PYRAZINAMIDE]",
    "assigned_class": "lower"
  },
  {
    "compound": "NC(=O)c1cnc(N)cn1",
    "assigned_class": "lower"
  }
]

Field: class (log K) — entry: CCCCCCCCNc1cncc(C(N)=O)n1
upper

Field: class (log K) — entry: CCCCCCCNc1cncc(C(N)=O)n1
upper

Field: class (log K) — entry: NC(=O)c1cncc(Cl)n1
lower

Field: class (log K) — entry: CCCCCNc1cnc(C(N)=O)cn1
middle

====

# test: Selectivity index, ratio of IC50 for human HepG2 cells to MIC for Mycobacterium tuberculosis H37Rv CNCTC My 331/88
# Format: toxicity, cell-based
# cond: read-out: Selectivity Index
Below, each entry is listed alongside its reported selectivity ratio.

[
  {
    "compound": "CCCCCCCCNc1cnc(C(N)=O)cn1",
    "selectivity ratio": "> 10"
  },
  {
    "compound": "CCCCCCCNc1cnc(C(N)=O)cn1",
    "selectivity ratio": "> 4.7"
  },
  {
    "compound": "CCCCCCCCNc1cncc(C(N)=O)n1",
    "selectivity ratio": 25.8
  },
  {
    "compound": "NC(=O)c1cnccn1 [PYRAZINAMIDE]",
    "selectivity ratio": "> 98.1"
  },
  {
    "compound": "NC(=O)c1cncc(Cl)n1",
    "selectivity ratio": 5.5
  }
]

Shifting focus to the compound that follows.
Check the records and state selectivity ratio for NC(=O)c1cnc(Cl)cn1
5

====

# test: Lipophilicity, log K of the compound by HPLC analysis
# Format: physicochemical
Below, each entry is listed alongside its reported log K.
Answer using only a numeral; do not append any unit.

Some compounds with known log K results, for comparison:
[
  {
    "compound": "NC(=O)c1cnc(NCCc2ccccc2)cn1",
    "log K": -0.0382
  },
  {
    "compound": "NC(=O)c1cnc(Cl)cn1",
    "log K": -0.3891
  },
  {
    "compound": "NNC(=O)c1ccncc1 [ISONIAZID]",
    "log K": -0.7432
  },
  {
    "compound": "CCCCCCNc1cnc(C(N)=O)cn1",
    "log K": 0.2389
  }
]

Check the records and state log K for CCCCCCCCNc1cnc(C(N)=O)cn1
0.693

Check the records and state log K for CCCCNc1cncc(C(N)=O)n1
-0.2162

Check the records and state log K for CCNc1cnc(C(N)=O)cn1
-0.552

Check the records and state log K for NC(=O)c1cnc(NCCCc2ccccc2)cn1
0.1408

Check the records and state log K for CCCNc1cncc(C(N)=O)n1
-0.4386

Check the records and state log K for CNc1cnc(C(N)=O)cn1
-0.6878

Check the records and state log K for CCCNc1cnc(C(N)=O)cn1
-0.3878

Check the records and state log K for CCNc1cncc(C(N)=O)n1
-0.6318

Check the records and state log K for NC(=O)c1cncc(NCCCc2ccccc2)n1
0.0741

Check the records and state log K for NC(=O)c1cncc(N)n1
-0.7814

Check the records and state log K for CCCCCNc1cncc(C(N)=O)n1
-0.0095

// provenance: ChEMBL document CHEMBL3102810
